B1: RAD54B (parent)
chain: YVQEKRDGLKRRQQLEEELLRAKI

# Variants of: B1
# measurement_description: protein stability index of a GFP-peptide fusion (GPS, HEK-293T) (PSI 1-6); higher = more stable;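 note: lentivirally expressed fusions sorted by FACS into six bins by GFP to DsRed ratio, PSI derived from sequencing read proportions per bin multiplied by bin number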
# condition_label: c terminus: a fixed tail appended
Here the recorded protein stability index is given for each entry.
reported_property: protein stability index

In [3]: df
Out[3]:
    variant_string  assay_result
 0             V2W          3.35
 1            A22I          2.32
 2             Q3G           1.9
 3            L19I          1.88
 4             Y1E          3.68
 5            R11V          2.13
 6            E18M          2.01
 7             R6Q          2.39
 8            I24F          1.98
 9             E4S           2.9
10            L19M          2.06
11            Q13Y           1.9
12             R6I          2.66
13            I24G          2.08
14            A22Y          1.81
15            L19V           1.7
16             E4T          1.49
17             D7S          2.37
18            E18G          2.53
19            E17F          1.87
20            E18Y          2.22
21            L19F          2.37
22            R12S          2.06
23            L19P          2.34
24             G8S          1.99
25             Q3F          1.95
26             Q3E          2.35
27            E18H          2.29
28            R21Y          1.75
29            Q13I          2.49
30            I24V          1.92
31            Q13G          2.31
32            E18W          2.42
33            Q13P          2.17
34            R21Q          1.89
35             E4W          1.62
36            R21E          2.17
37             V2H          2.55
38            Q14D           2.2
39            E18S          2.13
40            L15I          2.32
41            Q14W          2.12
42            Q14A          1.93
43            L15Q           1.7
44            E18C          1.73
45             V2Q          3.31
46            K23W          1.59
47            L20F           1.3
48            E17Q          1.51
49            I24W          2.28
50             Q3A          1.98
51             Y1I          3.14
52            K23N          2.28
53            E16P          1.56
54            Q13H          2.06
55            E16S          1.39
56            R12V          2.04
57             G8R          2.28
58             G8H          1.92
59            Q13E          2.41
60            Q13S          1.69
61             G8M          2.29
62            E16L          2.17
63             K5Q          2.48
64            L15E          2.61
65            R21A          1.66
66            A22W             2
67             V2R          3.82
68            L19G          2.54
69            L15S          1.95
70             D7V          1.47
71            Q14E             2
72            E16M          1.74
73             E4K          2.28
74             L9N          2.35
75             D7L          1.46
76             V2Y          3.56
77            K10L          2.28
78             D7A          1.87
79             L9T          1.83
80            K10N          2.41
81            E16Q           1.8
82             Y1W          3.92
83             Q3I          1.77
84            L20H          1.81
85            E17I          2.45
86            Q14R          2.09
87            Q13C          1.84
88            E17C          2.21
89            R11M          2.07
90             G8V          2.11
